target: human DNA polymerase λ (Homo sapiens, UniProt Q9UGP5); construct: Recombinant full-length human DNA polymerase λ and β were generated and purified as described; made in house; assay: Terminal transferase assay, DNA polymerase λ (TdT-like activity); assay type: biochemical; conditions: enzymatic assay, TdT-like activity of pol λ; read-out: ID50 pol λ (TdT)
Sequence (Q9UGP5 whole entry): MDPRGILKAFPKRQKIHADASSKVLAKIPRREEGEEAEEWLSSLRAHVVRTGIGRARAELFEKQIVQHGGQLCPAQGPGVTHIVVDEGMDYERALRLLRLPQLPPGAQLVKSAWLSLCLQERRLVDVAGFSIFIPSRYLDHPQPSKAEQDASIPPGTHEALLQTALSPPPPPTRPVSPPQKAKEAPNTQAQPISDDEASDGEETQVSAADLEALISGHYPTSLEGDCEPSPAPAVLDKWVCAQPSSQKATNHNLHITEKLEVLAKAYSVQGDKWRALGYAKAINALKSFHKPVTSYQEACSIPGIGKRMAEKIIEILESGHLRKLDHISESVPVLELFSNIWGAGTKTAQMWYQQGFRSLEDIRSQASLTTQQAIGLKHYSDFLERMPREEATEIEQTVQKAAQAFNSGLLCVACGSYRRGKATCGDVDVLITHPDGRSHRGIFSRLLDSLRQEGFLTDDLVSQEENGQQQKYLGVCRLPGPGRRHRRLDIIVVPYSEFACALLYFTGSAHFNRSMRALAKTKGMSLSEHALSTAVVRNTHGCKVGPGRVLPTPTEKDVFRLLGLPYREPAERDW
For each of the compounds below, state its IC50.

{"columns": ["CHEMICAL_SMILES", "IC50"],
 "data": [
  ["CCOC(=O)/C(O)=C/C(=O)/C=C/c1cc(C(=O)c2ccccc2)cn1Cc1ccc(OC)cc1", "> 100 µM"],
  ["O=C(/C=C(\\O)C(=O)O)/C=C/c1cc(C(=O)c2ccccc2)cn1Cc1ccc(Cl)cc1", "> 100 µM"],
  ["CCOC(=O)/C(O)=C/C(=O)/C=C/c1cc(C(=O)c2ccccc2)cn1Cc1ccc(Cl)cc1", "> 100 µM"]
]}

Which value of IC50 has been reported for "COc1ccc(Cn2cc(C(=O)c3ccccc3)cc2/C=C/C(=O)/C=C(\O)C(=O)O)cc1" in the records?
> 100 µM

Reference source for all entries: paper PMC12150604
